Tested on: LOC_OS02G54510-cb004;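 also: purified Escherichia coli-expressed rice kinase domain construct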
ASSAY NAME: thermal shift delta Tm vs DMSO control; higher = stronger stabilization (binding)
STATED CONDITIONS: 12.5 µM; protein concentration 2 µM
MEASURED QUANTITY: thermal shift delta Tm

# COMPOUND, MEASURED QUANTITY, ENDPOINT VALUE
records = [
    ("CN(C)CCOc1ccc(-c2nc(-c3ccncc3)c(-c3ccc4c(c3)CC/C4=N\\O)[nH]2)cc1", "thermal shift delta Tm", "0.08 °C"),
    ("Cc1cc(C(=O)Nc2nc3cccc(Cl)c3n2[C@@H]2CCCCN(C(=O)/C=C/CN(C)C)C2)ccn1 [Nazartinib (EGF816, NVS-816)]", "thermal shift delta Tm", "0.81 °C"),
    ("N#Cc1c(NC(=O)c2cccc3ccccc23)sc2c1CCCC2 [JNK Inhibitor IX]", "thermal shift delta Tm", "-0.12 °C"),
    ("Cc1ncc(-c2ccnc(Nc3ccc(S(C)(=O)=O)cc3)n2)n1C(C)C", "thermal shift delta Tm", "0.65 °C"),
    ("CO[C@H]1CC[C@H](N2C(=O)CNc3ncc(-c4ccc(C(C)(C)O)nc4)nc32)CC1", "thermal shift delta Tm", "-0.17 °C"),
    ("CNC(=O)c1cc(Oc2ccc(NC(=O)Nc3ccc(Cl)c(C(F)(F)F)c3)c(F)c2)ccn1 [Regorafenib (BAY 73-4506)]", "thermal shift delta Tm", "0.56 °C"),
    ("CNS(=O)(=O)Nc1nccc(Cc2c(C)c3ccc(Oc4ncccn4)cc3oc2=O)c1F", "thermal shift delta Tm", "-0.03 °C"),
    ("CC1(C)OCCn2c1nc1c(N3CCOCC3)nc(-c3cnc(N)nc3)nc12", "thermal shift delta Tm", "0.42 °C"),
    ("O=c1cc(N2CCOCC2)oc2c(-c3cccc4c3sc3ccccc34)cccc12", "thermal shift delta Tm", "0.33 °C"),
    ("COc1ccc(Oc2cc(NCCC(F)(F)F)c3ncc(-c4ccc(C(=O)NC5CC5)c(C)c4)n3n2)c(F)c1F", "thermal shift delta Tm", "0.01 °C"),
    ("COC(=O)[C@]12CCC(C)(C)C[C@H]1[C@H]1C(=O)C=C3[C@@]4(C)C=C(C#N)C(=O)C(C)(C)[C@@H]4CC[C@@]3(C)[C@]1(C)CC2 [Bardoxolone Methyl]", "thermal shift delta Tm", "-3.73 °C"),
    ("C=CC(=O)Nc1cccc(Oc2nc(Nc3ccc(N4CCN(C)CC4)cc3)ncc2Cl)c1", "thermal shift delta Tm", "0.5 °C"),
    ("Cc1nc2ccc(-n3ncc(C(=O)c4cc5ccccc5[nH]4)c3N)cc2[nH]1", "thermal shift delta Tm", "4.14 °C"),
    ("O=C1NC(=O)/C(=C/c2ccc3nccc(-c4ccncc4)c3c2)S1", "thermal shift delta Tm", "0.51 °C"),
    ("O=c1cc(N2CCOCC2)oc2c(-c3ccc4c(c3)OCCO4)csc12", "thermal shift delta Tm", "-0.08 °C"),
    ("CN1C(=O)[C@@H](NC(=O)c2n[nH]c(Cc3ccccc3)n2)COc2ccccc21", "thermal shift delta Tm", "-0.02 °C"),
    ("CC[C@@H]1C(=O)N(C)c2cnc(Nc3ccc(C(=O)NC4CCN(C)CC4)cc3OC)nc2N1C1CCCC1", "thermal shift delta Tm", "0.21 °C"),
    ("Nc1ncnc2c1c(-c1cnc3[nH]ccc3c1)nn2C1CCCC1", "thermal shift delta Tm", "3.34 °C"),
]
